- assayTarget: T1, human glucagon receptor (human, UniProt P47871 26-477)
- T1 construct: whole, on cells; Used as crude membranes of stably transfected HEK293 cells; also called hGcgR; hGLcgR
- T1 sequence (P47871 26-477): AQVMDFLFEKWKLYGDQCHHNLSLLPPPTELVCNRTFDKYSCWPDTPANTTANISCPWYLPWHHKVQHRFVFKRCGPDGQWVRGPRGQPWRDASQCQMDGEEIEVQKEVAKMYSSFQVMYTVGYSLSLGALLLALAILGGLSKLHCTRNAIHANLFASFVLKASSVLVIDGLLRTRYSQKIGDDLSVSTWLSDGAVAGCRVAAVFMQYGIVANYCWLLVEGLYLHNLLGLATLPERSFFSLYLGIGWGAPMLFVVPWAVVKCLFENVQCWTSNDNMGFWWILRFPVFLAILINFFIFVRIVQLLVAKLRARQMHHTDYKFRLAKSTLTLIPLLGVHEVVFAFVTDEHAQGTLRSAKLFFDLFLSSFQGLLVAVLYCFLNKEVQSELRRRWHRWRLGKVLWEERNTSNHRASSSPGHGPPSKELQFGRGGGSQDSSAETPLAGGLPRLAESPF
- procedureText: SPA, [125I]-Gcg displacement, hGcgR membranes

binder | unitsSymbol | Ki
YXEGTFTSDYSIXLDKKAQXAFIEYLIEGGPSSGAPPPS (Aib2; αMeL13; K17((2-[2-(2-Amino-ethoxy)-ethoxy]-acetyl)2-(γ-Glu)-CO-(CH2)18-CO2H); Aib20; C-terminal NH2) [Example 20] | nM | 228
YXEGTXTSDXSIXLDEKAQXEFIEYLIEGGPSSGAPPPS (Aib2; αMeF(2F)6; 4Pal10; αMeL13; K17((2-[2-(2-Amino-ethoxy)-ethoxy]-acetyl)2-(γ-Glu)-CO-(CH2)18-CO2H); Aib20; C-terminal NH2) [Example 158] | nM | 285
YXEGTXTSDYSIXLDKKAQXEFIXYLIEGGPSSGAPPPS (Aib2; αMeF(2F)6; αMeL13; K17((2-[2-(2-Amino-ethoxy)-ethoxy]-acetyl)-(γ-Glu)-(2-[2-(2-Amino-ethoxy)-ethoxy]-acetyl)-CO-(CH2)18-CO2H); Aib20; D-Glu24; C-terminal NH2) [Example 211] | nM | 131
